Taken from patent US10654834B2.

Below is a list of entries, each paired with its recorded pEC50 value.
Molecular target: mouse TGR5 receptor (Mus musculus)
Construct: host or cells: HEK293-EBNA (293 c18, ATCC CRL10852)
Test: Mouse TGR5 HTRF cAMP production assay (HEK293-EBNA cells, Cisbio cAMP HiRange kit)
Assay type: cell-based
Conditions: HEK293-EBNA cells overexpressing mouse TGR5, HTRF cAMP assay
pEC50: −log10 of the molar value.

MOLECULE	pEC50
CCOC(=O)CCNC(=O)NCCC1CCN(c2cc(N3CCC[C@@H](C(=O)NCCc4ccc(C#N)cc4)C3)nc(C(F)(F)F)n2)CC1 [Compound 346]	> 7.00
O=C(CCCC1CCN(c2cc(N3CCC[C@H]3C(=O)NCCc3ccc(C(F)(F)F)cc3)nc(C(F)(F)F)n2)CC1)NCCNc1cc(N(CCO)CCO)ncn1 [Compound 111]	> 7.00
O=C(CCCC1CCN(c2cc(N3CCC[C@@H](C(=O)NCCc4ccc(C(F)(F)F)cc4)C3)nc(C(F)(F)F)n2)CC1)NCCS(=O)(=O)O [Compound 336]	> 7.00
O=C(O)CCCC1CCN(c2cc(N3CC[C@H]3C(=O)NCCc3ccc(C(F)(F)F)cc3)nc(C(F)(F)F)n2)CC1 [Compound 233]	> 7.00
N#Cc1ccc(CCNC(=O)[C@@H]2CCN2c2cc(N3CCC(CCCC(=O)NCCNC(=N)N)CC3)nc(C(F)(F)F)n2)cc1 [Compound 282]	> 7.00

In the following, a different molecule is considered.
input: Consider the molecule N#Cc1ccc(CCNC(=O)[C@@H]2CC(F)(F)CN2c2cc(N3CCC(CCNC(=O)NCCS(=O)(=O)O)CC3)nc(C(F)(F)F)n2)cc1 [Compound 216] and give its measured pEC50.
output: 6.00 to 7.00

====

Test: Pharmacokinetic profile in mice after oral gavage
Format: in vivo, mouse
Conditions: mouse; fasted male Hilltop mice, 10 mg/kg oral gavage, plasma; read-out: Cmax
METRIC: Cmax (ng/mL)

Illustrative cases are given below, each with its answer.
1) N#C/N=C(\NCCC(=O)O)NCCC1CCN(c2cc(N3CC[C@H]3C(=O)NCCc3ccc(C#N)cc3)nc(C(F)(F)F)n2)CC1 301
2) N#Cc1ccc(CCNC(=O)[C@@H]2CCCN2c2cc(N3CCC(CCNC(=O)NCCS(=O)(=O)O)CC3)nc(C(F)(F)F)n2)cc1 1.3
3) N#Cc1ccc(CCNC(=O)[C@@H]2CCN2c2cc(N3CCC(CCNC(=O)NCCOCCNC(=O)NCCC(=O)O)CC3)nc(C(F)(F)F)n2)cc1 0.5
4) N#Cc1ccc(CCNC(=O)[C@@H]2CCCN2c2cc(N3CCC(CCCNC(=O)NCC(=O)O)CC3)nc(C(F)(F)F)n2)cc1 235
5) COc1cc(C(F)(F)F)ccc1CCNC(=O)[C@@H]1CCCN(c2cc(N3CCC(CCO)CC3)nc(C(F)(F)F)n2)C1 37

I: N#Cc1ccc(CCNC(=O)[C@@H]2CCCN2c2cc(N3CCC(CCNC(=O)N[C@@H](CCCNC(=N)N)C(=O)O)CC3)nc(C(F)(F)F)n2)cc1
II: COc1cc(C(F)(F)F)ccc1CCNC(=O)[C@@H]1CCCN1c1cc(N2CCC(CCCC(=O)NCCS(=O)(=O)O)CC2)nc(C(F)(F)F)n1
III: O=C(CCCC1CCN(c2cc(N3CCC[C@H]3C(=O)NCCc3ccc(C(F)(F)F)cc3)nc(C(F)(F)F)n2)CC1)NCCNc1cc(N(CCO)CCO)ncn1
input: # ascending order, key=Cmax Submit the labels in the order that the ranking request calls for.
output: I, III, II

P: N#Cc1ccc(CCNC(=O)[C@@H]2CCCN2c2cc(N3CCC(CCCC(=O)NCS(=O)(=O)O)CC3)cc(C(F)(F)F)n2)cc1
Q: O=C(CCCC1CCN(c2cc(N3CCC[C@H]3C(=O)NCCc3ccc(C(F)(F)F)cc3)nc(C(F)(F)F)n2)CC1)NCCCS(=O)(=O)O
R: N#Cc1ccc(CCNC(=O)[C@@H]2CCCN2c2cc(N3CCC(CCCC(=O)NCCS(=O)(=O)NCC(=O)O)CC3)nc(C(F)(F)F)n2)cc1
input: # sort list by recorded Cmax, greatest to least Thanks in advance for listing the labels in the requested order.
output: P, Q, R
(P: 6.8 ng/mL, Q: 4.3 ng/mL, R: 2.7 ng/mL)

P: N#Cc1ccc(CCNC(=O)[C@@H]2CCCN2c2cc(N3CCC(CCNC(=O)NCCC(=O)NCCS(=O)(=O)O)CC3)nc(C(F)(F)F)n2)cc1
Q: N#Cc1ccc(CCNC(=O)[C@@H]2CCCN2c2cc(N3CCC(CCNC(=O)NCCC(=O)O)CC3)nc(C(F)(F)F)n2)cc1
input: // which entry has the larger Cmax value, P or Q ? Identify your pick by its label.
output: Q

====

Target: mouse TGR5 receptor (Mus musculus, UniProt Q80SS6)
Construct: host or cells: HEK293-EBNA (293 c18, ATCC CRL10852)
Sequence (Q80SS6 1-329): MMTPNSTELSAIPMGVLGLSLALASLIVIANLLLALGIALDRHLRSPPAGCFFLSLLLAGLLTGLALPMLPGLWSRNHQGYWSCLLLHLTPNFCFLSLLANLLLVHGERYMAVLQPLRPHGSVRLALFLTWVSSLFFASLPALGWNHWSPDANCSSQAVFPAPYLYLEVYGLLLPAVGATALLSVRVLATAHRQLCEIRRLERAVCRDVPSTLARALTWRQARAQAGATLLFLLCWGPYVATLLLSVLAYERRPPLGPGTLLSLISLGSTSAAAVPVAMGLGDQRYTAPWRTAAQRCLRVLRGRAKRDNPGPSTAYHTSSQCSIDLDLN
Assay: Mouse TGR5 HTRF cAMP production assay (HEK293-EBNA cells, Cisbio cAMP HiRange kit)
Format: cell-based
Conditions: HEK293-EBNA cells overexpressing mouse TGR5, HTRF cAMP assay
pEC50: −log10 of the molar value.
METRIC: pEC50

Example entries and their recorded answers appear below.
COMPOUND	pEC50
N#Cc1ccc(CCNC(=O)[C@@H]2CCCN2c2cc(N3CCC(CCNC(=O)NCS(=O)(=O)O)CC3)nc(C(F)(F)F)n2)cc1 [Compound 79]	> 7.00
O=C(CS(=O)(=O)O)NCCC1CCN(c2cc(N3CC[C@H]3C(=O)NCCc3ccc(C(F)(F)F)cc3)nc(C(F)(F)F)n2)CC1 [Compound 279]	> 7.00

input: Given the entry N#Cc1ccc(CCNC(=O)[C@@H]2CCCN2c2cc(N3CCC(CCNC(=O)N[C@H](CC(=O)O)C(=O)O)CC3)nc(C(F)(F)F)n2)cc1 [Compound 82] , report its measured pEC50.
output: > 7.00

====

Assay: Comparison of PK in DIO mice and lean mice
Type: in vivo, mouse
Details: C57BL/6N, mouse, plasma, po, 10 mg/kg, Non-fasted Lean mice, oral (Table 58)
METRIC: Cmax (nM)
Numbers only here, please. The scale is nM.

input: Give the measured Cmax of N#Cc1ccc(CCNC(=O)[C@@H]2CCN2c2cc(N3CCC(CCNC(=O)NCCC(=O)O)CC3)nc(C(F)(F)F)n2)cc1 .
output: 2.1

====

Target: human TGR5 receptor (Homo sapiens, UniProt Q8TDU6)
Assay: Human TGR5 cAMP production assay (hTGR5-CHO cells, DiscoveRx cAMP XS+ kit)
Details: luminescent cAMP assay, read-out: Human TGR5 Lum. cAMP Activity (EC50)
EC50 values by entry

MOLECULE	RESULT
N#Cc1ccc(CCNC(=O)[C@@H]2CCCN2c2cc(N3CCC(CCCC(=O)NCCCC[C@H](NC(=N)N)C(=O)O)CC3)nc(C(F)(F)F)n2)cc1 [Compound 129]	< 100 nM
O=C(NCCc1ccc(C(F)(F)F)cc1)[C@@H]1CCCN1c1cc(OC2CCOCC2)nc(C(F)(F)F)n1 [Compound 40]	< 100 nM
N[C@@H]1CC(C(=O)NCCc2ccc(C(F)(F)F)cc2)N(c2cc(N3CCC(CO)CC3)nc(C(F)(F)F)n2)C1 (some centres unmarked) [Compound 218]	1000 to 30000 nM
N#Cc1ccc(CCNC(=O)[C@@H]2CCN2c2cc(N3CCC(CCCC(=O)NCCS(=O)(=O)O)CC3)nc(C(F)(F)F)n2)cc1 [Compound 249]	< 100 nM
CNCC1CCN(c2cc(N3CCC[C@H]3C(=O)NCCc3ccc(C#N)cc3)nc(C(F)(F)F)n2)CC1 [Compound 49]	100 to 999 nM

input: Consider the molecule shown here: N#Cc1ccc(CCNC(=O)[C@@H]2CCCN2c2cc(N3CCC(CCNC(=O)NCCS(=O)(=O)O)CC3)nc(C(F)(F)F)n2)cc1 [Compound 78] What is its recorded EC50?
output: < 100 nM

====

Target: UniProt:Q8TDU6
Sequence (Q8TDU6 1-330): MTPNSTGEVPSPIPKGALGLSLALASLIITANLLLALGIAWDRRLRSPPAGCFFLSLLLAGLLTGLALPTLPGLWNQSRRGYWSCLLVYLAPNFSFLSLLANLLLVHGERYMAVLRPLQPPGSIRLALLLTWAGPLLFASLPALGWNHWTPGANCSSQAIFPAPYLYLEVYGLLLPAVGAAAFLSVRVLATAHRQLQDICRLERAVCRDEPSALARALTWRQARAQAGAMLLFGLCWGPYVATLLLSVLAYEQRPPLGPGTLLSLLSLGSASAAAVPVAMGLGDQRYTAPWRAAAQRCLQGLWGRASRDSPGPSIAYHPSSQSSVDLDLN
Assay: Human TGR5 cAMP production assay (hTGR5-CHO cells, DiscoveRx cAMP XS+ kit)
Settings: luminescent cAMP assay, read-out: Human TGR5 Lum. cAMP Activity (EC50)
METRIC: EC50

// worked examples, EC50 included
MOLECULE	METRIC	RESULT
N#Cc1ccc(CCNC(=O)[C@@H]2CCCN2c2cc(-c3ccc(CO)s3)nc(C(F)(F)F)n2)cc1 [Compound 183]	EC50	100 to 999 nM
COc1cc(-c2cc(N3CCC[C@H]3C(=O)NCCc3ccc(C#N)cc3)nc(C(F)(F)F)n2)ccn1 [Compound 160]	EC50	1000 to 30000 nM
N#Cc1ccc(CCNC(=O)[C@@H]2CCCN2c2cc(-c3ccc(S(=O)(=O)N4CCOCC4)cc3)nc(C(F)(F)F)n2)cc1 [Compound 154]	EC50	1000 to 30000 nM
N#Cc1ccc(CCNC(=O)[C@@H]2CCCN2c2cc(N3CCC(CCN)CC3)nc(C(F)(F)F)n2)cc1 [Compound 50]	EC50	< 100 nM
N#Cc1ccc(CCNC(=O)[C@@H]2CCCN2c2cc(-c3cccs3)nc(C(F)(F)F)n2)cc1 [Compound 165]	EC50	100 to 999 nM

input: Lab note: need EC50 with UniProt:Q8TDU6 for entry N#Cc1ccc(CCNC(=O)[C@@H]2CCN2c2cc(N3CCC(CCNC(=O)NCCOCCNC(=O)NCCS(=O)(=O)O)CC3)nc(C(F)(F)F)n2)cc1 [Compound 358] , please look it up.
output: < 100 nM

input: Checklist item: EC50 tested on UniProt:Q8TDU6, entry N#Cc1ccc(CCNC(=O)[C@@H]2CCN2c2cc(N3CCC(CCCC(=O)NC[C@@H](O)CO)CC3)nc(C(F)(F)F)n2)cc1 [Compound 261] , value?
output: < 100 nM
